Reference source for all entries: patent US20260176336A1

Molecular target: T1, human LTBR endogenously expressed on cells (HepG2, A549, A375, HCC1187, RPMI-7951, primary human breast CAFs) (human, UniProt P36941 31-435)
T1 construct: also called lymphotoxin beta receptor; TNFRSF3
T1 sequence (P36941 31-435): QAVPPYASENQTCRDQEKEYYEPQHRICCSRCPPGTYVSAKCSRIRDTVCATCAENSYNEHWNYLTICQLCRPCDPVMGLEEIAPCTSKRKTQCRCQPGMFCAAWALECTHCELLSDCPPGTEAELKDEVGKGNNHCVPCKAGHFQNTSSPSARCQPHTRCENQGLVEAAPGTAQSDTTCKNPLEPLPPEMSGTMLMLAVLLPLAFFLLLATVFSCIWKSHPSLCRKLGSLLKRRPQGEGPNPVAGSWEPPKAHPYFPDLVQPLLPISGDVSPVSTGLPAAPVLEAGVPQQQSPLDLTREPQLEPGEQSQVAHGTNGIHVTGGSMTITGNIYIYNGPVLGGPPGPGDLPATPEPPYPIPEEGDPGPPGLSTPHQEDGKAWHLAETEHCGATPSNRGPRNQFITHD
Assay: flow cytometry, HepG2 cells, VHH detected by anti-FLAG
measuredParameter: EC50 (nM)
Expressed in nM, but write only the number.

A selection of reference data follows.
Clone 1.1 (VHH, not shown: small tags and cut ends, monovalent anti-LTBR VHH; also called 1.1 (parental clone for 1.7)) VHH: EVQLVESGGGLVQPGGSLRLSCAASGRFFGIYDMYWYRQPPGKQRELVAISTSGGHTNYADSVKGRFTISRDNAKNTVYLQMNSLRPEDTAVYYCNIQRVDAPGMYWGQGTLVTV: 0.41
Clone 1.4 (VHH, not shown: small tags and cut ends, monovalent anti-LTBR VHH; also called 1.4 (parental clone for 1.6)) VHH: EVQLVESGGGLVQPGGSLRLSCKASGTTFSDRAFGWYRQAPGKQRELVATISTAGLTWYDVSVKGRFIISRDNPENTVYLQMNSLRPEDTAVYYCNTFRGNWGQGTLVTVSS: 2.3
Clone 1.2 (VHH, not shown: small tags and cut ends, monovalent anti-LTBR VHH; also called 1.2 (parental clone for 1.5)) VHH: EVQLVESGGGLVQPGGSLRLSCAASGSSIFSFEIMAWYRQAPGKQRELVAVINKGGEANYPDSVEGRFTISRDNAKNTVYLQMNSLRPEDTAVYYCNADAVPHGSYWGQGTLVTVSS: 1.6

In the following, a different binder is considered.
Entry under review: Clone 1.3 (VHH, not shown: small tags and cut ends, monovalent anti-LTBR VHH; also called 1.3 (parental clone for 1.8)) VHH: EVQLVESGGGLVQPGGSLRLSCAASGRTFTNYRMAWFRQAPGKEREAVAAINWNGGGTYYADSVKGRFTISRDNAKNTVYLQMNSLRPEDTAVYYCAADSTGWGSYFDYWGQGTLVTVSS . Reported EC50?
1.2
